- Test system: NCI-H522
- Test summary: NCI tumour cell line growth inhibition, 48 h
Active and inactive are the calls of the source. Rule as the data show it: active = GI50 up to about 1.1 µM and inactive = higher.
Return exactly one item of active, inactive

CN(C)C(CN)CC1=C(CC(CN)N(C)C)CCC1 (centres undefined); inactive
C=C[C@H]1CN2CCc3c([nH]c4c([C@H]5CCCN5C)c(O)ccc34)[C@@H]2C[C@@H]1C[C@H]1c2[nH]c3ccccc3c2CCN1C; inactive
CC1CCC2CC(=O)OC([C@@H]3C(=O)O[C@@H](C4=CCCC4)C4C(C)CCC43)C12 (some centres undefined); inactive

Prompt: In this assay, the call recorded for C[C@@H]1C[C@@H](O)[C@]2(O)O[C@@H]3C[C@@]4(C=O)[C@@H](CC[C@@H]5[C@@H]4CC[C@]4(C)[C@@H](C6=CC(=O)OC6)CC[C@]54O)C[C@H]3O[C@@H]2O1 was what?
Completion: active

###

- System: SK-MEL-2
- Test summary: NCI tumour cell line growth inhibition, 48 h
Calls of active or inactive are those of the source. Cut-off read from the data, not from the text of the source: active = GI50 up to about 1.1 µM and inactive = higher.
Please respond with reported GI50 for every item in the list.

Batch of 4 compounds: report GI50 for each.
1. CCOc1cc(C(=O)O)c2c(ccc3ccc(OC)c(OC)c32)c1OC
2. O=[N+]([O-])/C(Cl)=C(/C(Cl)=C(Cl)Cl)N1CCOCC1
3. CCOC(=O)C1=C(O)C(=O)c2c(OC)ccc(OC)c2C1=O
4. CC(C)OC(=O)C1=C2c3ncccc3C(=O)N2[C@@H](Cl)[C@H](Cl)[C@H]1Cl

Completion:
> 100 µM (inactive)
2.12 µM (inactive)
> 100 µM (inactive)
> 100 µM (inactive)

Prompt: Which measured GI50 belongs to COc1ccc(/C=C2\N=C(SC)N(CN3CCOCC3)C2=O)cc1 , tested on SK-MEL-2?
Completion: > 100 µM (inactive)

###

Please provide measured GI50 for the entries that follow.
- Test system: NCI-H460
- Test summary: NCI tumour cell line growth inhibition, 48 h
Activity calls are given as the source filed them. Rule as the data show it: active = GI50 up to about 1.1 µM and inactive = higher.

Solved entries (count: 5):
Brc1c(C#CCC(c2ccccc2)(c2ccccc2)c2ccccc2)ccc(C#CCC(c2ccccc2)(c2ccccc2)c2ccccc2)c1Br; > 100 µM (inactive)
CC(=O)Nc1ccc(-c2nc3ccccc3s2)cc1C; 78.2 µM (inactive)
Cc1ccc(NC(=O)CC2C(=O)Nc3ccccc3S2(=O)=O)c(C)c1 (stereo unspecified); 16 µM (inactive)
O=C(Nc1sccc1S(=O)(=O)c1ccccc1)c1ccccc1; > 31.6 µM (inactive)
N#CCCN(CCC#N)c1ccc(C(/N=N/c2ccc(Cl)cc2)=N\c2ccccc2)cc1; 7.78 µM (inactive)

Let's switch to this compound now.
Prompt: Fill in the blank: the reported GI50 of Cc1nc(-c2ccc([N+](=O)[O-])cc2)cn2c1nc1ccccc12 is ____.
Completion: > 100 µM (inactive)

###

- Test system: DMS-114
- Test summary: NCI tumour cell line growth inhibition, 48 h
Calls of active or inactive are those of the source. Rule as the data show it: active = GI50 up to about 1.1 µM and inactive = higher. Numbered stars: 1 amine (or outer) side, 2 acyl side, 3 side chain; on linkers, the order of the positions; unused ones are H or OH. Square brackets hold non-standard residues; d marks the D form. Peptide text beside a SMILES is read from it. X55 = CC[C@H](C)[C@H](OC(=O)[C@@H](C)[C@@H](CC)N[*:1])C(=O)[*:2]; X31 = C[C@H](N[*:1])C(=O)C(C)(C)C(=O)[*:2]; NMeY = CN[C@@H](Cc1ccc(O)cc1)C(=O)O; NMeL = CN[C@@H](CC(C)C)C(=O)O; NMeV = CN[C@H](C(=O)O)C(C)C
Choose the fitting class; nothing outside active, inactive is accepted.

COc1ccc(-c2cc(=O)c3ccc(O)cc3o2)c(OC)c1OC; inactive
CN(CCO)c1nc(N)cc(=O)[nH]1; inactive
CCCCCCCCCCCC(=O)C1=C(O)CC(O)CC1=O (stereo not drawn); inactive

Prompt: How was CC[C@H](C)[C@@H]1OC(=O)[C@@H](C)[C@@H](CC)NC(=O)[C@H](C)NC(=O)C(C)(C)C(=O)[C@H](C)NC(=O)[C@H](Cc2ccc(OC)cc2)N(C)C(=O)[C@H](C(C)C)N(C)C(=O)CNC(=O)[C@H](CC(C)C)N(C)C(=O)CNC1=O [DOLASTATIN 11] (cyclo(A[X55]G[NMeL]G[NMeV][NMeY](Me)[X31])) classified in this test?
Completion: active

Prompt: Returns: the outcome recorded for CC(=O)OC1(C#N)CC2OC1C1C2N1C(=O)OC(C)(C)C (stereo not drawn) in this assay.
Completion: inactive

Prompt: # outcome recorded in this test, key = CC1=CC=NN2C(=O)[C@H](C)C2C1 (stereo partly drawn)
Completion: inactive

Prompt: // param item: NC(=O)N/N=C1/CCCC/C1=C\c1ccccc1 ; yields the recorded call
Completion: inactive

Prompt: Please share the test call associated with CCCNCCCC(NC(C)=O)C(=O)NCc1ccccc1 (stereo not drawn) .
Completion: inactive

###

- System: OVCAR-3
- Test summary: NCI tumour cell line growth inhibition, 48 h
Active and inactive are the calls of the source. No stated cut-off is given here; in the data, active = GI50 up to about 1.1 µM and inactive = higher.
Can you tell me GI50 for the items I'm about to list?

O=C1Cc2ccccc2CCc2ccccc21; > 100 µM (inactive)
O=C(Cc1nc2ccccc2s1)Nc1ccc(Cl)cc1; > 100 µM (inactive)

Go through the list and state GI50 for each entry.
1. OC1CCCCCCCCCCC1[S+]1CCCC1.O[B-](F)(F)F (centres undefined)
2. Cc1csc2nc(-c3ccc(Cl)c([N+](=O)[O-])c3)c(/C=N/NC(=N)N)n12
3. Cc1ccccc1CN1CC=c2ccccc2=N1
4. CC(=O)c1c2c(cc3c1CC1(Cc4cc5c(cc4C1)CCC5)C3)CCC2

Completion:
1. 52.5 µM (inactive)
2. 1.96 µM (inactive)
3. > 100 µM (inactive)
4. > 100 µM (inactive)

Hi team, please reply with GI50 for each item in this list.
1. N#CC12C(=O)NC(=O)C1(C#N)C1C=CC2CC1 (centres undefined)
2. COC[C@@H](C[C@H]1O[C@@](O)([C@H](O)[C@@H]2C[C@H](OC)[C@@H](O)CC/C=C(C)/C=C/[C@@H](O[C@@H]3O[C@@H](C)[C@H](OC)[C@@H](O)[C@@H]3O)[C@H](C)/C=C(C)/C=C(C)/C=C(\C)C(=O)O2)[C@H](C)[C@@H](O)[C@H]1C)O[C@H]1C[C@](C)(O)[C@@H](O[C@H]2C[C@@H](OC)[C@H](O)[C@@H](C)O2)C(C)O1 (some centres undefined)
3. C[N+](C)(C)C(C1=CCCC1=O)c1ccccc1 (centres undefined)
4. N#Cc1nc(Cc2ccccc2)oc1N
5. O=[N+]([O-])c1ccc(-c2ccc(C3=Nn4c(nnc4-c4ccc(Cl)cc4)SC3)o2)cc1

Completion:
1: > 100 µM (inactive); 2: 63.1 µM (inactive); 3: 47.1 µM (inactive); 4: > 100 µM (inactive); 5: 94.8 µM (inactive)

I would be grateful if you could provide GI50 for each of the following entries.
1. CCOC(=O)C12C3CCC1C2C(=O)C3 (centres undefined)
2. Cn1cc(NC(=O)c2cc(NC(=O)CCCCCCCCCC(=O)Nc3cc(C(=O)Nc4cc(C(=O)NCCC(=N)N)n(C)c4)n(C)c3)cn2C)cc1C(=O)NCCC(=N)N
3. CC1=C(NC(=O)/C(=N/NC(=S)NN)C2C(=O)CC(C)(C)CC2=O)C(=O)c2ccccc2C1=O
4. Cc1cc(NS(=O)(=O)c2ccc(NC(=O)c3cccc4c(Nc5ccc(S(=O)(=O)Nc6cc(C)on6)cc5)c5ccccc5nc34)cc2)no1
5. N/C(=N\N=C\c1nc2ccccc2o1)c1cnccn1
6. COc1cc(COC(=O)N2CCCCC2C(=O)O)c([N+](=O)[O-])cc1OC (centres undefined)
7. O=C1C(O)=C(CCCCCCCCC2CCCCC2)C(=O)c2ccccc21
8. CCOP12(OCC)NC(=O)OC1(C(F)(F)F)c1ccccc1O2 (centres undefined)

Completion:
1. > 100 µM (inactive)
2. 19.2 µM (inactive)
3. 2.3 µM (inactive)
4. 87.3 µM (inactive)
5. > 100 µM (inactive)
6. > 100 µM (inactive)
7. 10.7 µM (inactive)
8. > 100 µM (inactive)

###

- Tested on: HCC 2998
- Test summary: NCI tumour cell line growth inhibition, 48 h
Calls of active or inactive are those of the source. Rule as the data show it: active = GI50 up to about 1.1 µM and inactive = higher.
Recorded metric: GI50

Guide cases for GI50, answers given:
CC(=O)OCC1OC(OCC2OC(N3C(=S)N[C@H]([C@@H](O)[C@H](O)[C@H](O)CO)[C@H]3O)C(OC(C)=O)C(OC(C)=O)C2OC(C)=O)C(OC(C)=O)C(OC(C)=O)C1OC(C)=O (stereo not given in full); > 100 µM (inactive)
N#COc1ccc(Oc2ccccc2)cc1; 55.5 µM (inactive)
CCOP(=O)(OCC)OC1C=CC2CCC1C2 (stereo not given); > 100 µM (inactive)
c1ccc2c(c1)Sc1ccccc1N2CC1CN2CCC1CC2 (stereo not given) [MEQUITAZINE]; 1.29 µM (inactive)

For the next question, use this molecule.
Prompt: Field request: GI50 | item: CC(=O)c1c2c(cc3c1CC1(Cc4cc5c(cc4C1)CCC5)C3)CCC2
Completion: > 100 µM (inactive)
